Target: AuroraB (h) (Homo sapiens)
Sequence (Q96GD4 whole entry): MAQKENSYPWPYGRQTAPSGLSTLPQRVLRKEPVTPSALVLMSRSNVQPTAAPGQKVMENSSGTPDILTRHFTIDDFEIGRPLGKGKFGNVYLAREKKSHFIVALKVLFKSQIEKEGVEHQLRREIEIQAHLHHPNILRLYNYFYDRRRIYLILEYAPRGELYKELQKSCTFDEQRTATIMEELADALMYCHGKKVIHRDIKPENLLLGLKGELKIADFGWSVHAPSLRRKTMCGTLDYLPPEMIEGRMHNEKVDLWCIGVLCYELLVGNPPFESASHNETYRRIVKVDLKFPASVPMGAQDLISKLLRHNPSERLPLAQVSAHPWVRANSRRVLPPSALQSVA
Experiment: Aurora-B human kinase inhibition, SPA
Type: biochemical
Details: read-out: AuroraB pIC50 (converted)
measure: IC50 (µM)

compound | measure | readout relation | readout value
COc1ccc2cc1CN(C)CCNC(=O)[C@@H]1CCCN1Cc1cc(Br)cc(c1)Nc1nccc-2n1 [Compound 174] | IC50 | = | 8.71
O=C1NCc2cc(ccc2N2CCOCC2)Nc2nccc(n2)-c2cccc(c2)CN2CCC[C@@H]12 [Compound 15] | IC50 | = | 2.95
COc1ccc2cc1CN(C)CCNC(=O)C1CCN(CC1)Cc1cc(NCCc3ccccc3)cc(c1)Nc1nccc-2n1 [Compound 74] | IC50 | > | 10
CC(C)Nc1cc2cc(c1)Nc1nccc(n1)-c1ccc(cc1)CN(C)CCCNC(=O)CN1CCN(CC1)C2 [Compound 131] | IC50 | > | 10

====

Target: PLK4 (h) (Homo sapiens, UniProt O00444)
Sequence (O00444 whole entry): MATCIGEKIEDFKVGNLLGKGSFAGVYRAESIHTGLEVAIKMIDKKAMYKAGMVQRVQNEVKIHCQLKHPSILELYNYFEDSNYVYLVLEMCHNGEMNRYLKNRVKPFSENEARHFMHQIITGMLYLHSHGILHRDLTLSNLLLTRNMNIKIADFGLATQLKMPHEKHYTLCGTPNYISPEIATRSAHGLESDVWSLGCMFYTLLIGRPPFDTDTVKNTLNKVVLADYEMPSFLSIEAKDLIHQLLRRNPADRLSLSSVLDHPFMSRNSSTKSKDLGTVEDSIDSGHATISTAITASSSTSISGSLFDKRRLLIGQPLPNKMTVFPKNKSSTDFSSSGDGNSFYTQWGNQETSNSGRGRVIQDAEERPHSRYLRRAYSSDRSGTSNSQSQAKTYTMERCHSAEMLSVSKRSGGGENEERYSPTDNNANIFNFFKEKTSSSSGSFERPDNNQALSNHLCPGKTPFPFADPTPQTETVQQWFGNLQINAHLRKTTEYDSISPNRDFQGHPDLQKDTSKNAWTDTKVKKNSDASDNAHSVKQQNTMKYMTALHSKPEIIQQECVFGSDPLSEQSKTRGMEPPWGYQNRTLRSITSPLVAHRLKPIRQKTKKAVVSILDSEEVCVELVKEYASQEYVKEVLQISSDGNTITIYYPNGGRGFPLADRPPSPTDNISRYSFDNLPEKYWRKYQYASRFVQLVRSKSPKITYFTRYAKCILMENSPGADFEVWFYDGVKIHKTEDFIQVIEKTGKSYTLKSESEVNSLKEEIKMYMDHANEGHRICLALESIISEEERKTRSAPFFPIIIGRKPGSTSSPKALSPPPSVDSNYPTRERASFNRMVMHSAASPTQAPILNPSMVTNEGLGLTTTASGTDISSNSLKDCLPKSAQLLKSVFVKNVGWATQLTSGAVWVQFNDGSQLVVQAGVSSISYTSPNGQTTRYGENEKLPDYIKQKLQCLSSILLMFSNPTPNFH
Test: PLK-4 human kinase inhibition, scintillation proximity assay (SPA)
Type: biochemical
Conditions: read-out: PLK4 pIC50 (converted)
List of IC50 values.
measure: IC50 (nM)

molecule | readout relation | readout value
COc1cc2cc(c1)Nc1nccc(n1)-c1ccc(OC)c(c1)CN(C)CCNC(=O)C1CCN(CC1)C2 [Compound 67] | = | 1510
O=C1NCc2cccc(c2)-c2ccnc(n2)Nc2ccc(N3CCOCC3)c(c2)CN2CCC[C@@H]12 [Compound 1] | = | 47.9
COc1cc2cc(c1OC)CN1CCC[C@H]1C(=O)NCc1cccc(c1)-c1ccnc(n1)N2 [Compound 23] | = | 74.1
COc1ccc2cc1CNCCNC(=O)C1CCN(CC1)Cc1cc(ccc1N1CCOCC1)Nc1nccc-2n1 [Compound 64] | = | 1200
COc1ccc2cc1CN(C)CCNC(=O)[C@H](CO)NCc1cc(cc(N3CCOCC3)c1)Nc1nccc-2n1 [Compound 105] | = | 447
CN1CCN(C(=O)c2cc3cc(c2)Nc2nccc(n2)-c2cccc(c2)CNC(=O)[C@@H]2CCCN2C3)CC1 [Compound 34] | = | 186
O=C1NCc2cc(ccc2N2CCOCC2)Nc2nccc(n2)-c2cccc(c2)CN2CCC[C@@H]12 [Compound 15] | = | 575
O=C1CN2CCN(CC2)Cc2ccc(Cl)c(c2)Nc2nccc(n2)-c2cccc(c2)CN1 [Compound 195] | > | 10000
O=C1NCc2cccc(c2)-c2ccnc(n2)Nc2ccc(cc2)CN[C@H]1CO [Compound 191] | > | 10000
C[C@@H]1NCc2cc(ccc2N2CCOCC2)Nc2nccc(n2)-c2ccc(cc2)OCCCNC1=O [Compound 5] | = | 162
O=C1NCc2cccc(c2)-c2ccnc(n2)Nc2cccc(c2)CN[C@H]1Cc1ccccc1 [Compound 185] | = | 794
COc1ccc2cc1CN(C)CCCNC(=O)CN1CCN(CC1)Cc1cccc(c1)Nc1nccc-2n1 [Compound 146] | = | 6760
O=C1NCc2ccc(cc2)-c2ccnc(n2)Nc2ccc(N3CCOCC3)c(c2)CN2CCC[C@@H]12 [Compound 49] | = | 5890
O=C1NCc2cccc(c2)-c2ccnc(n2)Nc2ccc(C(=O)N3CCOCC3)c(c2)CN2CCC[C@@H]12 [Compound 26] | = | 97.7
COc1ccc2cc1CN(C)CCNC(=O)C1CCN(CC1)Cc1cc(NCCc3ccccc3)cc(c1)Nc1nccc-2n1 [Compound 74] | = | 2950
